Test readout: melting point

{"Compound": "CCC(CC)N1CCC(CNc2ccc(Cl)cc2C(=O)Nc2ccc(Cl)cn2)CC1", "Reported value": "136 to 138 °C"}
{"Compound": "COc1cc2c(cc1OC)C(C(S)(C#N)c1ccccc1C(=O)O)=NCC2 (centres undefined)", "Reported value": "245 to 247 °C"}
{"Compound": "N#Cc1cccc(-c2nc(Nc3cnccn3)sc2-n2cncn2)c1", "Reported value": "> 250 °C"}

// batch mode: one melting point value per listed entry
1. FC(F)(F)c1ccc(C=Cc2nc(CNc3ccc(OCCCn4ccnn4)cc3)co2)cc1
2. CCOC(=NC(=O)c1ccc(Br)cc1)N1Cc2ccccc2-c2ccccc2C1
3. O=c1cc(NCCN2CCN(c3ccc(F)cc3)CC2)cn[nH]1
4. N#CC(Cl)Cc1ccc([N+](=O)[O-])cc1 (centres undefined)
5. COc1ccc(CN2C(=O)C(Oc3ccccc3)C2c2ccc(C(=O)O)cc2)cc1OC (centres undefined)

1: 134 to 136 °C; 2: 116 to 117 °C; 3: 96 to 98 °C; 4: 112 °C; 5: 160 to 161 °C

###

Test readout: melting point

{"Molecule": "Fc1cccc2c(NCCc3ccc4ccccc4c3)ccnc12", "melting point": "173 to 174 °C"}
{"Molecule": "Cc1ccc(CCOc2ccc(N)cc2)nc1", "melting point": "74 to 75 °C"}
{"Molecule": "Fc1cnccc1Nn1ccc2cc(OCc3ccccc3)ccc21", "melting point": "140 °C"}
{"Molecule": "CNC(=NC#N)NCc1cccnc1", "melting point": "183 to 184 °C"}
{"Molecule": "CCOC(=O)C(=C1SC(=S)N(CC(=O)O)C1=O)c1csc(NC(C)=O)n1", "melting point": "292 to 296 °C"}
{"Molecule": "CCn1c2ccccc2c2cc(/C=C(\\C#N)c3cccnc3)ccc21", "melting point": "131 to 133 °C"}

// batch mode: one melting point value per listed entry
1. COC(=O)c1ccccc1-c1ccc(CN2C(=O)c3ccccc3C2=O)cc1
2. CC(=O)Nc1ccc(CCCOCCCCCCNCC(O)c2cc(Cl)c(N)c(Cl)c2)nc1 (stereo unspecified)
3. Cc1[nH]c(C(=O)N2CC=CN2)c(C)c1-c1nc2ccc(C(=O)c3ccccc3)cc2[nH]1
4. O=C(NC1CCCCC1)ON1C(=O)CCC1=O
5. O=C(O)CN(CCN(CC(=O)O)C(Cc1ccccc1)C(=O)O)CC(=O)O (stereo unspecified)

["148 to 150 °C", "66 to 67 °C", "148 to 150 °C", "158 to 160 °C", "120 °C"]

###

I'd appreciate it if you could supply melting point values for the items below.

Known melting point results, listed for orientation:
{"Molecule": "CCCCCCCC(=O)N1CCN(c2ccc3c(c2)N2CCN=C2C(c2ccccc2)=[N+]3[O-])CC1", "melting point": "212 to 213 °C"}
{"Molecule": "O=C(O)C1CCc2c(c3cccc(F)c3n2C(=O)c2ccccc2)C1 (stereo not given)", "melting point": "250 to 251 °C"}
{"Molecule": "COC1=C(OCCCc2ccccc2)c2c(C)ccnc2C(N)([N+](=O)[O-])C1 (stereo not given)", "melting point": "91 to 91.5 °C"}
{"Molecule": "CC(c1ccnnc1)C(O)(Cn1cncn1)c1ccc(Cl)cc1Cl (stereo not given)", "melting point": "174 to 177 °C"}
{"Molecule": "COC(=O)NNC(=S)Cc1ccc(C)cc1", "melting point": "104 to 105 °C"}
{"Molecule": "CN1C(=O)C(NC(=O)C23CC4CC(CC(C4)C2)C3)N=C(c2ccccc2)c2ccccc21 (racemic)", "melting point": "256 to 257 °C"}
{"Molecule": "CC(=O)Oc1cccc(C(=O)Nc2nc(S(C)(=O)=O)cs2)c1", "melting point": "209 to 212 °C"}
{"Molecule": "O=[N+]([O-])c1ccc(F)c(-c2ccncc2)c1F", "melting point": "110 to 112 °C"}
{"Molecule": "CC(C)(C)OC(=O)NCC1CNC1", "melting point": "112 to 114 °C"}

Then this molecule:
Endpoint output: melting point of CCCCc1cc(Br)c(N=Nc2ccc(N(CCO)CCO)cc2NC(C)=O)c(Br)c1 . Value?
157 to 159 °C
